- measurement.description: soluble on expression in E. coli; label from the status in PepcDB or PDB records
outcome.measure: soluble on expression in E. coli

Examples from the recorded data:
| chain.sequence | outcome.measure | result |
| --- | --- | --- |
| MVSIMNKNELITEILKNEVVKALGCTEVGLIGYTVAKAKPEDLYSIKEIKLILDKGTFKNAFSVGVPNTNKFGILPAVVGGLLGREENKLEVFKDIKYDEKLEEFIENKLKIEVIDSDVYCKVIIKANKVYEAETKGSHSGKSLSDDLKNAYKSLTLKDFIDYIEDIPEEVIKIIKETIETNKNLSTPEVPEDFISLDLKDEILNHMLKKTVSAVYNRMIGINKPAMAIAGSGNMGLTATLPIIAYDEIKGHDEEKLTKSITLSALTTIYSAYHSSYISAMCGCVNRGGIGAVSGLSYYIFGFDRIEESIKSFTANLPGIVCDGGKIGCALKIASGVFAIYLSLFSKVPYTNGIVGKDFKECIENIGKIGKAMKPVDDEIIEILKNKK | soluble on expression in E. coli | soluble |
| MAHHHHHHMRLTASRALLQQAGEMCTALHWMCRIAARVPESGLSGSQLQALLDDEFPSFSPSEVGAVTLKEAVLRFPELLSVEDGSQLQAKWRVRPTHAHKTQEQRASPSSKPTETYTLPMMKLQQFCTKRARMHRNTYMPLEYVLSKADITDVNIVGEVLHNPDAALDVQAGVRIKPKRTPRAVVAFVDGDALPAVAVDEMCNELNVLKESSIVTIVRQPGSHELSAVDIVCPDVIPTYLSIEKHAHELRLRRPNVRHDVVYMCAASQFNIYADRVALLNDFPDADVYVCCPSMIALVKPKKVIPFE | soluble on expression in E. coli | soluble |
| MGSSHHHHHHMTLNQPEYFTKYENLHFHRDENGILEVRMHTNGSSLVFTGKTHREFPDAFYDISRDRDNRVVILTGSGDAWMAEIDFPSLGDVTNPREWDKTYWEGKKVLQNLLDIEVPVISAVNGAALLHSEYILTTDIILASENTVFQDMPHLNAGIVPGDGVHILWPLALGLYRGRYFLFTQEKLTAQQAYELNVVHEVLPQSKLMERAWEIARTLAKQPTLNLRYTRVALTQRLKRLVNEGIGYGLALEGITATDLRNN | soluble on expression in E. coli | soluble |
| MGSDKIHHHHHHMALIHEIITSENIKGFYNAKNENVENTLGEKAFPPKQQLGLKLSFIKGAAGKPVTLKAAAFDTKVPLRDRMAVELIDEEMPFFKEAMLVKEADRQQLNMLAQTKNNELIDTILASIYNDQATLIAGAKARLEAMRMEVLSKGKIHIQSNGVMKDIDYGLAEDQTTKPDAKWDSAGTATPLKDIEKAIEKMAERGFVPEAIIMNSKTFSLIKNAESTLDVVKPMAPNGAAVTKRDLNTYLEDELQIKVILKDGMFVGDDGESRKYFPDGFATLVPNGNLGYTVFGTTPEQSDLLGGEATDANVSIVETGIAITTTKTTDPVNVQTKVSMIALPSFERLEEVHIINGLQDA | soluble on expression in E. coli | not soluble |

Turning now to a further record.
Input: Tell me measured soluble on expression in E. coli for MGSDKIHHHHHHMKLLWFAHRDIKHPKAGGAERTIYEVGKRLSKLNIGVNLVTVNPGNLLEYENVDGIIIYRIKGNIRTHLYVRKMIKKINPDVIIDDMGHAVPWFSPWFTDKRVIVFFRHLHAKSLPGQVNFFLAKIITLVEKLYPIIYKNNIFVTESDTSENDLIDLGIKKDRIVRIPPGVDLNLFHTGKKTDNVQLLYFGGLRKYKRPEYAITIYENLYKKIDNLKLIIVGDGILLNEIKDKVKGKNYNIVFTGKLEYDELAKIIRESWVNLHFSVTEGWGYSILEASASGTPSVAFKVPGVVDTIIDGYNGFLVNNINEFTDKILYIIKNEDKFILNSRKFAENFTWEKTADLWYKLLNGN please.
Output: not soluble

The values you see were collected from the DeepSol protein solubility set.
